# Assay Notes: Hemolysis of human erythrocytes by the cyclodextrin derivative
# Type: cell-based
# Recorded Conditions: erythrocytes; 5 mmole/l, 0.4 ml of human erythrocyte suspension, pH 7.4, 30 min, 37° C.; read-out: hemolysis percentage
Quantity: hemolysis at 0.5 h, 5000 µM (%)
Respond with the bare value in %.

q: Read off the recorded hemolysis at 0.5 h, 5000 µM for OC[C@H]1O[C@@H]2O[C@H]3[C@H](O)[C@@H](O)[C@@H](O[C@H]4[C@H](O)[C@@H](O)[C@@H](O[C@H]5[C@H](O)[C@@H](O)[C@@H](O[C@H]6[C@H](O)[C@@H](O)[C@@H](O[C@H]7[C@H](O)[C@@H](O)[C@@H](O[C@H]8[C@H](O)[C@@H](O)[C@@H](O[C@H]1[C@H](O)[C@H]2O)O[C@@H]8CO)O[C@@H]7CO)O[C@@H]6CO)O[C@@H]5CO)O[C@@H]4CO)O[C@@H]3CO [β-cyclodextrin, cyclomaltoheptaose]
a: 50

Moving on to another compound below.
q: Read off the recorded hemolysis at 0.5 h, 5000 µM for OC[C@H]1O[C@@H]2O[C@H]3[C@H](O)[C@@H](O)[C@@H](O[C@H]4[C@H](O)[C@@H](O)[C@@H](O[C@H]5[C@@H]6OC[C@H]5O[C@H](O[C@H]5[C@H](O)[C@@H](O)[C@@H](O[C@H]7[C@H](O)[C@@H](O)[C@@H](O[C@H]8[C@H](O)[C@@H](O)[C@@H](O[C@H]1[C@H](O)[C@H]2O)O[C@@H]8CO)O[C@@H]7CO)O[C@@H]5CO)[C@@H]6O)O[C@@H]4CO)O[C@@H]3CO [mono-3,6-anhydrocyclomaltoheptaose]
a: 0

====

# Assay Notes: Solubility of prednisolone in water, alone or in the presence of a cyclodextrin
# Format: physicochemical
# Recorded Conditions: prednisolone solubility in the presence of β-cyclodextrin, same conditions, with β-cyclodextrin
Quantity: solubility (mM)
Respond with the bare value in mM.

q: Read off the recorded solubility for C[C@]12C=CC(=O)C=C1CC[C@@H]1[C@@H]2[C@@H](O)C[C@@]2(C)[C@H]1CC[C@]2(O)C(=O)CO
a: 9
